Experiment: Antiproliferative activity against human WM266.4 cells harboring BRAF V600E mutant assessed as cell growth inhibition after 24 hrs by MTT assay
Type: functional, cell-based
Details: WM 266-4, 24 h
Examples of compounds with documented IC50 follow.
readout kind: IC50 (µM)

{"columns": ["smiles input", "endpoint unit", "quantitative readout"],
 "data": [
  ["COc1ccccc1N1CCN(c2c(CO)c(=O)oc3ccccc23)CC1", "µM", 18.3],
  ["O=c1oc2ccccc2c(N2CCN(c3ccccc3)CC2)c1CO", "µM", 16.6],
  ["O=c1oc2ccccc2c(N2CCN(c3cccc(Cl)c3)CC2)c1CO", "µM", 46.3],
  ["COc1cccc(N2CCN(c3c(CO)c(=O)oc4ccccc34)CC2)c1", "µM", 5.33],
  ["O=c1oc2ccccc2c(N2CCN(c3cccc(C(F)(F)F)c3)CC2)c1CO", "µM", 30]
]}
